The reported measurements were obtained from patent US20230263822A1.

# Protocol Notes: Hematology assays in cynomolgus monkeys (Example 46)
# Format: in vivo
# Cond: Day 45
Strand notation (5' to 3'): a small letter for the sugar, then the base; units joined by * are phosphorothioate-linked, units joined directly phosphodiester-linked; [ ] holds rarer units or linkages, { } end groups; capitals alone tell only the bases. e = 2'-O-(2-methoxyethyl) (MOE); [5mC] = 5-methylcytosine; d = 2'-deoxy (DNA)
Each entry below lists one item and its recorded MCH value.
// return numeric value only (unit: pg, not printed)

As a guide, the following entries are already answered.
substance="ISIS 449710: 3-8-3, 4-8-4, 2-10-2, 3-10-3 or 4-10-4 MOE microwalk gapmer (Table 46) (antisense e[5mC]*eA*e[5mC]*dA*dG*dT*dT*dT*d[5mC]*dT*dG*dG*d[5mC]*eA*eG*eG)" property_label=MCH experimental_result=21.8
substance="ISIS 449708: 3-8-3, 4-8-4, 2-10-2, 3-10-3 or 4-10-4 MOE microwalk gapmer (Table 46) (antisense eA*e[5mC]*eA*dG*dT*dT*dT*d[5mC]*dT*dG*dG*e[5mC]*eA*eG)" property_label=MCH experimental_result=22.2
substance="ISIS 449709: 3-8-3, 4-8-4, 2-10-2, 3-10-3 or 4-10-4 MOE microwalk gapmer (Table 46) (antisense eG*e[5mC]*eA*e[5mC]*dA*dG*dT*dT*dT*d[5mC]*dT*dG*dG*d[5mC]*eA*eG*eG*e[5mC])" property_label=MCH experimental_result=21.0
substance="ISIS 445522: 5-8-5 or 6-8-6 MOE microwalk gapmer (Table 44) (antisense eG*e[5mC]*eA*e[5mC]*eA*dG*dT*dT*dT*d[5mC]*dT*dG*dG*e[5mC]*eA*eG*eG*e[5mC])" property_label=MCH experimental_result=22.4
substance="ISIS 449711: 3-8-3, 4-8-4, 2-10-2, 3-10-3 or 4-10-4 MOE microwalk gapmer (Table 46) (antisense eA*e[5mC]*dA*dG*dT*dT*dT*d[5mC]*dT*dG*dG*d[5mC]*eA*eG)" property_label=MCH experimental_result=21.7
substance="ISIS 445531: 5-8-5 or 6-8-6 MOE microwalk gapmer (Table 44) (antisense eG*eG*e[5mC]*eA*eT*dT*dG*dG*dT*dG*d[5mC]*dA*d[5mC]*eA*eG*eT*eT*eT)" property_label=MCH experimental_result=21.6
substance="ISIS 416850: MOE gapmer, nucleobases 1275 to 1318 of SEQ ID NO: 1 (Table 8) (antisense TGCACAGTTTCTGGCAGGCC; MOE gapmer, wing and gap sizes not given here)" property_label=MCH experimental_result=22.7
substance="ISIS 416858: MOE gapmer, nucleobases 1275 to 1318 of SEQ ID NO: 1 (Table 8) (antisense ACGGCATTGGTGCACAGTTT; MOE gapmer, wing and gap sizes not given here)" property_label=MCH experimental_result=22.2

Let us move to another entry and its MCH.
Lab book: MCH of ISIS 449707: 3-8-3, 4-8-4, 2-10-2, 3-10-3 or 4-10-4 MOE microwalk gapmer (Table 46) (antisense e[5mC]*eA*e[5mC]*eA*dG*dT*dT*dT*d[5mC]*dT*dG*dG*e[5mC]*eA*eG*eG) noted as 22.6
